Values from patent US20100120810A1

# experimental target: Rac1 activated by DH/PH domain of Guanine nucleotide Exchange Factor Tiam1 (Rac1/Tiam1) (Homo sapiens, UniProt P63000)
# Construct: made in house; host or cells: E. coli BL21 Codon+RIL
# assay info: Nucleotide binding assay: BODIPY-GTP binding to Rac1 activated by Tiam1 DH/PH
# Assay type: biochemical
# particulars: final concentration of 50 μM; Rac1/Tiam1; read-out: Rac1 % inhibition of BODIPY-GTP binding
Counter-ions that a name gives are not always drawn.
Reported inhibition at 50 µM is given for each of the following molecules.
Enter your answer as a number in %; do not include the unit.

Study these solved cases before continuing.
INSERT INTO results (molecule, readout_type, unit_of_measure, observed) VALUES
  ('COc1cc2cc(-c3cccc(C(C)=O)c3)[n+](C)c(C)c2cc1OC', 'inhibition at 50 µM', '%', 20),
  ('COc1cc2cc(-c3cccnc3)nc(C)c2cc1OC [Compound 36, dihydrochloride]', 'inhibition at 50 µM', '%', 10),
  ('COc1ccc2c(c[n+](C)c3c4cc5c(cc4ccc23)OCO5)c1OC.[Cl-] [Compound 14, reference compound]', 'inhibition at 50 µM', '%', 25),
  ('COc1cc2cc(-c3ccccc3NC(C)=O)nc(C)c2cc1OC', 'inhibition at 50 µM', '%', 1);

Note to self: inhibition at 50 µM recorded for COc1ccc2c(c1OC)C(c1ccccc1)N1CCc3cc4c(cc3C1=C2)OCO4 (stereo not drawn) was 18

Note to self: inhibition at 50 µM recorded for COc1cc2cc(-c3ccc(Cl)c(Cl)c3)nc(C)c2cc1OC was 17

Note to self: inhibition at 50 µM recorded for COc1cc(-c2cc3cc(OC)c(OC)cc3c(C)n2)ccc1O [Compound 47, hydrochloride] was 15

Note to self: inhibition at 50 µM recorded for COc1ccc(-c2cc3cc(OC)c(OC)cc3c(C)n2)cc1 was 15

Note to self: inhibition at 50 µM recorded for COc1ccc2c(c1OC)C[N+]1(Cc3ccccc3)CCc3cc4c(cc3C1C2)OCO4 (racemic) was 9
